# pIC50 per entry
TGT: Corticotropin-releasing factor receptor 1 (Homo sapiens)
Sequence (P34998 whole entry): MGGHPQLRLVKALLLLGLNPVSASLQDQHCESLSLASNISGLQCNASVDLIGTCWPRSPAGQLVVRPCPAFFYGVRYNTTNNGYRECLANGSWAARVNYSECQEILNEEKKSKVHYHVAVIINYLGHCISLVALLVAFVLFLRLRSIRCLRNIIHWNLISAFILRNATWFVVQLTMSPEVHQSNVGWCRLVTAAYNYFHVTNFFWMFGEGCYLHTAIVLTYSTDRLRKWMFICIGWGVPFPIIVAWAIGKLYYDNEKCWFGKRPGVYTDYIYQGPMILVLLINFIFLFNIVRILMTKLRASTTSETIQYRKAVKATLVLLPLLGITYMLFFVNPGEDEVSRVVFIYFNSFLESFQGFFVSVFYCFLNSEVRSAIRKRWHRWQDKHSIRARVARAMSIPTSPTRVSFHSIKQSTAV
PROTOCOL_TEXT: Displacement of [125I]sauvagine from human recombinant CRF1 receptor expressed in CHO cells by SPA
Type: cell-based
As a rule, pIC50 stands for the negative log10 of the concentration, concentration in M.

| COMPOUND_STRUCTURE | TGT | pIC50 |
| --- | --- | --- |
| Cc1cc(-n2ccc(-c3nccs3)n2)c2c(n1)N(c1ccc(O)cc1C)CC2 | Corticotropin-releasing factor receptor 1 (Homo sapiens) | 5.46 |
| Cc1cc(-n2ccc(-c3nccs3)n2)c2c(n1)N(c1ccc(C#N)cc1F)CC2 | Corticotropin-releasing factor receptor 1 (Homo sapiens) | 5.69 |
| Cc1cc(-n2ccc(-c3nccs3)n2)c2c(n1)N(c1cnc(N(C)C)cc1C)CC2 | Corticotropin-releasing factor receptor 1 (Homo sapiens) | 6.59 |
| Cc1cc(-n2ccc(-c3ccccn3)n2)c2c(n1)N(c1ccc(C#N)cc1C(F)(F)F)CC2 | Corticotropin-releasing factor receptor 1 (Homo sapiens) | 7.03 |
| COc1ccc(N2CCc3c(-n4ccc(-c5nccs5)n4)cc(C)nc32)c(C(F)F)c1 | Corticotropin-releasing factor receptor 1 (Homo sapiens) | 7.46 |

Task: Param item = COc1ccc(N2CCc3c(-n4ccc(-c5nccs5)n4)cc(C)nc32)cc1 ; retrieve measured pIC50.
Result: 5.06

Task: Param item = Cc1cc(-n2ccc(-c3nccs3)n2)c2c(n1)N(c1ccc(C#N)cc1-c1cccs1)CC2 ; retrieve measured pIC50.
Result: 6.07
